Tested on: P12-Ichikawa
experimental.details: cell viability relative to DMSO control; higher = less cytotoxic
condition.description: HPLM + 10% dialyzed FBS; 48 h; 0.19 µM
recorded.metric: cell viability (%)
Form entry: value (%) — number only.

These recorded examples may help you get a feel for the data.
O=C1CCc2ccc(OCCCCN3CCN(c4cccc(Cl)c4Cl)CC3)cc2N1 :: 98.9
N\C1=N\C2=C(N=C[N]2COC(CO)CO)C(=O)N1 :: 115
CN(C)CCCNC(=O)c1ccc(-c2cc(O)c3ncccc3c2)cc1 :: 111
CCCCCCCCc1ccc(CCC(N)(CO)CO)cc1 :: 112
C[C@@H]1CC[C@@]2(OC1)OC1CC3C4CC=C5CC(O)CCC5(C)C4CCC3(C)C1[C@@H]2C (some centres undefined) :: 106
CC(=O)O[C@@]12CO[C@@H]1C[C@H](O)[C@]3(C)[C@@H]2[C@H](OC(=O)C4=CC=CC=C4)[C@]5(O)C[C@H](OC(=O)C(O)[C@@H](NC(=O)OC(C)(C)C)C6=CC=CC=C6)C(=C(/[C@@H](O)C3=O)C5(C)C)/C (some centres undefined) :: 40.1
Cc1ccc(C(=O)c2cc(O)c(O)c([N+](=O)[O-])c2)cc1 :: 104
COc1ccc2c(c1OC)CN1CCc3cc4c(cc3C1C2)OCO4 (centres undefined) :: 99.8

Fill in: cell viability of COC1(C[S+]([O-])c2ccccc2)CCN(CCc2c[nH]c3ccc(F)cc23)CC1 (centres undefined) is ___
115

# iterate: "COc1cc(N[S+](=O)([O-])c2ccc(N)cc2)nc(OC)n1"
115

====

System: SEM cells
experimental.details: cell viability relative to DMSO control; higher = less cytotoxic
condition.description: HPLM + 10% dialyzed FBS; 48 h; 1.71 µM
recorded.metric: cell viability (%)
Numeric answer only, unit % assumed.

Solved entries (count: 4):
CN[S+](=O)([O-])CCc1ccc2[nH]cc(C3CCN(C)CC3)c2c1 :: 99.7
CC1COC2=C3N1\C=C(C(O)=O)/C(=O)C3=CC(=C2N4CCN(C)CC4)F (stereo not given) :: 119
COc1ccc(Nc2cc(-c3cnc(N)nc3)nc(N3CCOCC3)n2)cn1 :: 84.7
Cc1cc(O)c2c(c1)C(=O)c1cc(O)cc(O)c1C2=O :: 99.4

Then there is this compound:
Reported cell viability for C[C@@H]1CC[C@@]2(OC1)OC1CC3C4CC=C5CC(O)CCC5(C)C4CCC3(C)C1[C@@H]2C (stereo not given in full) : what is it?
95.1

====

Test system: NOMO1
experimental.details: cell viability relative to DMSO control; higher = less cytotoxic
condition.description: RPMI 5 mM glucose + 10% dialyzed FBS; 48 h; 46.1 µM
# strict inequality: cell viability < 50% yields 1, everything else yields -1

Quick check: cell viability of "O=[N+]([O-])c1cnc(Sc2nnc(O)n2-c2ccc3c(c2)OCCO3)s1" under 50%?
1

====

Below: a set of entries, each annotated with reported cell viability.
System: NOMO1
experimental.details: cell viability relative to DMSO control; higher = less cytotoxic
condition.description: RPMI 5 mM glucose + 10% dialyzed FBS; 48 h; 0.00702 µM
Give the number; % is assumed, so skip it.

The examples below pair each entry with its known result.
CC(C)NCC(O)COc1ccc(CCOCC2CC2)cc1 (configuration not stated) :: 122
Cc1ccc(-c2ncn(-c3ccc(Nc4nccc(-c5cccc(N6CCOCC6)c5)n4)cc3)n2)cn1 :: 88.9
C#C[C@]1(O)CC[C@H]2[C@@H]3CCc4cc(OC)ccc4[C@H]3CC[C@@]21C :: 106
CO[C@H]1C[C@@H]2CC[C@@H](C)[C@@](O)(O2)C(=O)C(=O)N2CCCC[C@H]2C(=O)O[C@H]([C@H](C)C[C@@H]2CC[C@@H](OCCO)[C@H](OC)C2)CC(=O)[C@H](C)/C=C(/C)[C@@H](O)[C@@H](OC)C(=O)[C@H](C)C[C@H](C)\C=C/C=C\C=C/1C :: 84.5
N[C@@H](CC(=O)N1CCn2c(nnc2C(F)(F)F)C1)Cc1cc(F)c(F)cc1F :: 99.5

// query cell viability value for entry "CC1(C)CC(O)CC(C)(C)N1[O]"
121

Check "COC[C@H]1OC(=O)C2=COC3=C2[C@@]1(C)\C4=C(\[C@@H]5CC[C@H](O)[C@@]5(C)C[C@H]4OC(C)=O)C3=O" too.
110

====

Tested on: P12-Ichikawa
experimental.details: cell viability relative to DMSO control; higher = less cytotoxic
condition.description: RPMI 5 mM glucose + 10% dialyzed FBS; 48 h; 0.0632 µM
Parameter: cell viability. Scope: all listed entries.
Expressed in %, but write only the number.

Examples from the recorded data:
CN(C)CCCNC(=O)c1ccc(-c2cc(O)c3ncccc3c2)cc1 :: 103
CN[C@@H]1C[C@H]2O[C@@](C)([C@@H]1OC)n1c3ccccc3c3c4c(c5c6ccccc6n2c5c31)C(=O)N[C@H]4O :: 81.2
COc1cc(OC)c(NC(=O)Nc2cc(C)on2)cc1Cl :: 96.5
N\C1=N\C2=C(N=C[N]2COC(CO)CO)C(=O)N1 :: 106
CC(=O)[C@H]1CC[C@H]2[C@@H]3CCC4=CC(=O)CC[C@]4(C)[C@H]3CC[C@]12C :: 120

I'd like to know its cell viability. The compound in question is "C[N+](C)([O-])CCNc1ccc(NCC[N+](C)(C)[O-])c2c1C(=O)c1c(O)ccc(O)c1C2=O"
83.7

Cool, now "O=C(CCCCCCC(=O)Nc1ccccc1)NO"
107

Query "CN(C)C[C@@H]1CC[N]2C=C(C3=C2C=CC=C3)C/4=C(/C(=O)NC4=O)C5=C[N](CCO1)C6=C5C=CC=C6" next
103

====

Test system: NOMO1
experimental.details: cell viability relative to DMSO control; higher = less cytotoxic
condition.description: RPMI 5 mM glucose + 10% FBS; 48 h; 0.19 µM
Reported values of cell viability for individual entries
The response must be a number in % with no trailing unit.

Here is how some molecules turned out for cell viability.
COc1cc(OC)c(NC(=O)Nc2cc(C)on2)cc1Cl :: 97.9
C#C[C@]1(O)CC[C@H]2[C@@H]3CCc4cc(OC)ccc4[C@H]3CC[C@@]21C :: 123
O=C1NC(=O)/C(=C/c2cccc(C(F)(F)F)c2)S1 :: 97.8
CCN(C)C(=O)Oc1cccc([C@H](C)N(C)C)c1 :: 94.4
CC(C)NCC(O)c1ccc(NS(C)(=O)=O)cc1 (centres undefined) :: 98.6
Nc1nc(OCc2ccccc2)c2nc[nH]c2n1 :: 101

# get_value(readout='cell viability', item= COC1(C[S+]([O-])c2ccccc2)CCN(CCc2c[nH]c3ccc(F)cc23)CC1 (centres undefined) )
117

Query "OCCCNc1cc(-c2ccnc(Nc3cccc(Cl)c3)n2)ccn1" next
54.5

Also, CC(=O)O[C@@]12CO[C@@H]1C[C@H](O)[C@]3(C)[C@@H]2[C@H](OC(=O)C4=CC=CC=C4)[C@]5(O)C[C@H](OC(=O)C(O)[C@@H](NC(=O)OC(C)(C)C)C6=CC=CC=C6)C(=C(/[C@@H](O)C3=O)C5(C)C)/C (some centres undefined) please.
27.1

====

System: P12-Ichikawa
experimental.details: cell viability relative to DMSO control; higher = less cytotoxic
condition.description: HPLM + 10% dialyzed FBS; 48 h; 0.0632 µM
Each entry below carries its recorded cell viability.
Respond numerically; units are % and should not be typed.

Use the examples below as a reference point.
Cc1cc(Cl)ccc1OCCCC(=O)NO :: 106
COc1ccc2c(c1OC)CN1CCc3cc4c(cc3C1C2)OCO4 (stereo unspecified) :: 101

cell viability for CC(C)NCC(O)c1ccc(NS(C)(=O)=O)cc1 (stereo unspecified) ?
117

Another molecule to check: "CN(C)CC/C=C1/c2ccccc2COc2ccc(CC(=O)O)cc21"
125

Try the molecule "NC(=O)c1cccc(N)c1"
120

Another molecule to look at: "CC(C)C[C@H](NC(=O)[C@H](Cc1ccccc1)NC(=O)c1cnccn1)B(O)O"
4.77

====

System: NOMO1
experimental.details: cell viability relative to DMSO control; higher = less cytotoxic
condition.description: HPLM + 10% dialyzed FBS; 48 h; 0.00234 µM
Reported cell viability values for a set of molecules
Report the figure in % without appending any unit label.

Known cell viability results, listed for orientation:
NC(=O)Nc1cc(-c2ccc(CN3CCOCC3)cc2)sc1C(N)=O :: 112
O=c1[nH]cnc2c1ncn2[C@H]1CC[C@@H](CO)O1 :: 91.9

Now consider the entry below.
Entry O=C1NC(O)CCN1[C@@H]1O[C@H](CO)[C@@H](O)[C@H]1O (stereo partly drawn) : reported cell viability = ?
124
